System: type D HBV X protein (HBx) reporter cell line
Experiment: sgRNA lentiviral library screening, HBx reporter cell line (NGS reads in GFP-negative cells)
Assay type: cell-based
Settings: sgRNA in GFP-negative cell population, day 14 after transfection of EPIREG
Here the recorded Log2 FC is given for each entry.
No unit in the answer, only the number.

In the examples that follow, each entry is paired with its recorded Log2 FC.
{"SUBSTANCE": "1132 (guide TTTACCCCGTTGCCCGGCAA; listed as DNA, chemistry not fully specified) [compound 1132]", "TEST SYSTEM": "type D HBV X protein (HBx) reporter cell line", "Log2 FC": 4.252}
{"SUBSTANCE": "484 (guide CGCCGACGGGACGTAAACAA; listed as DNA, chemistry not fully specified) [compound 484]", "TEST SYSTEM": "type D HBV X protein (HBx) reporter cell line", "Log2 FC": 3.3079}
{"SUBSTANCE": "601 (guide GACCAAGCCCCAGCCAGTGG; listed as DNA, chemistry not fully specified) [compound 601]", "TEST SYSTEM": "type D HBV X protein (HBx) reporter cell line", "Log2 FC": 7.1876}
{"SUBSTANCE": "498 (guide CGGGGAGTCCGCGTAAAGAG; listed as DNA, chemistry not fully specified) [compound 498]", "TEST SYSTEM": "type D HBV X protein (HBx) reporter cell line", "Log2 FC": 2.939}
{"SUBSTANCE": "491 (guide CGGAACGGCAGACGGAGAAG; listed as DNA, chemistry not fully specified) [compound 491]", "TEST SYSTEM": "type D HBV X protein (HBx) reporter cell line", "Log2 FC": 6.0674}

Form: Entry = 958 (guide TCCTGCGGACGACCCTTCTC; listed as DNA, chemistry not fully specified) [compound 958] | System = type D HBV X protein (HBx) reporter cell line | Log2 FC = ____
3.9999

Can you check 150 (guide AGAGAGGTGCGCCCCGTGGT; listed as DNA, chemistry not fully specified) [compound 150] next?
3.8671

Can you check 257 (guide ATGGGCCATCAGCGCGTGCG; listed as DNA, chemistry not fully specified) [compound 257] next?
6.5564

---

System: type D HBV surface antigen (HBsAg) reporter cell line
Assay: sgRNA lentiviral library screening, HBsAg reporter cell line (NGS reads in GFP-negative cells)
Format: cell-based
Settings: sgRNA in GFP-negative cell population, day 14 after transfection of EPIREG
READOUT: Log2 FC
No unit in the answer, only the number.

In the examples that follow, each entry is paired with its recorded Log2 FC.
{"SUBSTANCE": "270 (guide ATTTGCTGTGTTTGCTCTGA; listed as DNA, chemistry not fully specified) [compound 270]", "Log2 FC": 1.397}
{"SUBSTANCE": "825 (guide GTCCCAAGCGACCCCGAGAA; listed as DNA, chemistry not fully specified) [compound 825]", "Log2 FC": 1.0352}
{"SUBSTANCE": "62 (guide AATGTCAACGACCGACCTTG; listed as DNA, chemistry not fully specified) [compound 62]", "Log2 FC": 1.5364}
{"SUBSTANCE": "242 (guide ATCCTGCGGACGACCCTTCT; listed as DNA, chemistry not fully specified) [compound 242]", "Log2 FC": 0.8809}

Returns the measured Log2 FC for the input substance. Input: 774 (guide GGGGCGCACCTCTCTTTACG; listed as DNA, chemistry not fully specified) [compound 774]
1.1527

Can you check 127 (guide ACTGGCTGGGGCTTGGTCAT; listed as DNA, chemistry not fully specified) [compound 127] next?
1.3983

---

Test system: type D HBV surface antigen (HBsAg) reporter cell line
Test: sgRNA lentiviral library screening, HBsAg reporter cell line (NGS reads in GFP-negative cells)
Assay type: cell-based
Conditions: sgRNA in GFP-negative cell population, day 14 after transfection of EPIREG
Here the recorded Log2 FC is given for each entry.
No unit in the answer, only the number.

In the examples that follow, each entry is paired with its recorded Log2 FC.
{"SUBSTANCE": "601 (guide GACCAAGCCCCAGCCAGTGG; listed as DNA, chemistry not fully specified) [compound 601]", "NUMBER": 1.3073}
{"SUBSTANCE": "410 (guide CCCGTTGCCCGGCAACGGCC; listed as DNA, chemistry not fully specified) [compound 410]", "NUMBER": 1.9735}

Let's switch to this substance now.
Returns the measured Log2 FC for the input substance. Input: 506 (guide CGTCCCGCGCAGGATCCAGT; listed as DNA, chemistry not fully specified) [compound 506]
1.5863

---

Test system: type D HBV X protein (HBx) reporter cell line
Test: sgRNA lentiviral library screening, HBx reporter cell line (NGS reads in GFP-negative cells)
Format: cell-based
Conditions: sgRNA in GFP-negative cell population, day 14 after transfection of EPIREG
Description: In this example, the type D HBV X protein (HBx), core antigen (HBcAg), and surface antigen (HBsAg) reporter cell lines were used for library screening. […] The sgRNA library was packaged into lentivirus to obtain a sgRNA lentiviral library (carrying red fluorescence), the reporter cell line was infected with the lentiviral library, and the red fluorescence was sorted to obtain the sgRNA cell library. […]
READOUT: Log2 FC
No unit in the answer, only the number.

{"SUBSTANCE": "335 (guide CAGATGAGAAGGCACAGACG; listed as DNA, chemistry not fully specified) [compound 335]", "READOUT": "Log2 FC", "NUMBER": 4.44}
{"SUBSTANCE": "305 (guide CACAGAAAGGCCTTGTAAGT; listed as DNA, chemistry not fully specified) [compound 305]", "READOUT": "Log2 FC", "NUMBER": 4.9316}
{"SUBSTANCE": "834 (guide GTCGGAACGGCAGACGGAGA; listed as DNA, chemistry not fully specified) [compound 834]", "READOUT": "Log2 FC", "NUMBER": 4.7704}
{"SUBSTANCE": "1065 (guide TGGTCGGTCGGAACGGCAGA; listed as DNA, chemistry not fully specified) [compound 1065]", "READOUT": "Log2 FC", "NUMBER": 6.0793}
{"SUBSTANCE": "539 (guide CTGACGCAACCCCCACTGGC; listed as DNA, chemistry not fully specified) [compound 539]", "READOUT": "Log2 FC", "NUMBER": 3.1536}

Let's switch to this substance now.
Returns the measured Log2 FC for the input substance. Input: 88 (guide ACATCGTATCCATGGCTGCT; listed as DNA, chemistry not fully specified) [compound 88]
3.4448

---

Tested on: type D HBV X protein (HBx) reporter cell line
Experiment: sgRNA lentiviral library screening, HBx reporter cell line (NGS reads in GFP-negative cells)
Assay type: cell-based
Conditions: sgRNA in GFP-negative cell population, day 14 after transfection of EPIREG
Exam item: assign satisfied to entries whose Log2 FC is below 5 and not satisfied to entries at or above 5. Note that a value of exactly 5 receives not satisfied.

Here are 4 substances together with their reported answers.
{"SUBSTANCE": "249 (guide ATGACCAAGCCCCAGCCAGT; listed as DNA, chemistry not fully specified) [compound 249]", "GROUP": "not satisfied"}
{"SUBSTANCE": "612 (guide GACGCAACCCCCACTGGCTG; listed as DNA, chemistry not fully specified) [compound 612]", "GROUP": "not satisfied"}
{"SUBSTANCE": "553 (guide CTGGCCGTTGCCGGGCAACG; listed as DNA, chemistry not fully specified) [compound 553]", "GROUP": "satisfied"}
{"SUBSTANCE": "810 (guide GTAAAGAGAGGTGCGCCCCG; listed as DNA, chemistry not fully specified) [compound 810]", "GROUP": "not satisfied"}

// next entry
Determine if 735 (guide GGCACAGACCTGGCCGTTGC; listed as DNA, chemistry not fully specified) [compound 735] shows Log2 FC strictly lower than 5.
satisfied

---

Here the recorded Log2 FC is given for each entry.
System: type D HBV X protein (HBx) reporter cell line
Assay: sgRNA lentiviral library screening, HBx reporter cell line (NGS reads in GFP-negative cells)
Type: cell-based
Conditions: sgRNA in GFP-negative cell population, day 14 after transfection of EPIREG
No unit in the answer, only the number.

In the examples that follow, each entry is paired with its recorded Log2 FC.
{"SUBSTANCE": "825 (guide GTCCCAAGCGACCCCGAGAA; listed as DNA, chemistry not fully specified) [compound 825]", "Log2 FC": 5.2457}
{"SUBSTANCE": "357 (guide CATGACCAAGCCCCAGCCAG; listed as DNA, chemistry not fully specified) [compound 357]", "Log2 FC": 6.2753}

Returns the measured Log2 FC for the input substance. Input: 450 (guide CCTGCGGACGACCCTTCTCG; listed as DNA, chemistry not fully specified) [compound 450]
4.242
